Property: IC50; scope: individual compounds
# Target: CDK1/CyclinB (h) (Homo sapiens, UniProt P06493)
# Sequence (P06493 whole entry): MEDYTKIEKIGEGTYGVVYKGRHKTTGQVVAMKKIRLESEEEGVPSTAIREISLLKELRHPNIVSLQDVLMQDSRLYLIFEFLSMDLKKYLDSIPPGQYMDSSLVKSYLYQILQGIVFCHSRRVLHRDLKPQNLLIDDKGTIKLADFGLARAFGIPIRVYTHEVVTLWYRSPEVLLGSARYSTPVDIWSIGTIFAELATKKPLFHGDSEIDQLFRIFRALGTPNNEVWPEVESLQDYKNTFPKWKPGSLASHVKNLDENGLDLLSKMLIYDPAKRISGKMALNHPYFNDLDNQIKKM
# Sequence (P14635 whole entry partner): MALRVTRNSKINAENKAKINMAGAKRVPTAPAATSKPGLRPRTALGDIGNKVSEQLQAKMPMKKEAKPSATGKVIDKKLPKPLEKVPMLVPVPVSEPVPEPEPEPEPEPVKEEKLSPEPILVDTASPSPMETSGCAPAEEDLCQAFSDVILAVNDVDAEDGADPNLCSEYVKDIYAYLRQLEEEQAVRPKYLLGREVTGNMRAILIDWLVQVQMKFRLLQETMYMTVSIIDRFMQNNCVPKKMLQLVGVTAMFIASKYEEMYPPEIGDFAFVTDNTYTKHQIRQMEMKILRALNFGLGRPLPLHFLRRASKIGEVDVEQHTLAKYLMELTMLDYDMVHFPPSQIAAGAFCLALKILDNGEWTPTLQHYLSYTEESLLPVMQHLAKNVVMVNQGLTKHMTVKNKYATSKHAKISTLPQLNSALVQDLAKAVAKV
# Assay overview: CDK1/CyclinB human kinase inhibition, Invitrogen's FRET assay (Z'lyte)
# Assay type: biochemical
# Setup conditions: read-out: CDK1 pIC50 (converted)
Recorded metric: IC50

# Compound structure, Target, Recorded metric, Recorded value
data = [
    ("COc1ccc2cc1CN(C)CCCNC(=O)C1CCN(CC1)Cc1cccc(c1)Nc1nccc-2n1", "CDK1/CyclinB (h) (Homo sapiens, UniProt P06493)", "IC50", "> 10 µM"),
    ("C[C@@H]1NCc2ccc(Cl)c(c2)Nc2nccc(n2)-c2cccc(c2)CNC1=O", "CDK1/CyclinB (h) (Homo sapiens, UniProt P06493)", "IC50", "> 10 µM"),
    ("COc1cc2cc(c1)Nc1nccc(n1)-c1ccc(OC)c(c1)CN(C)CCNC(=O)CN1CCN(CC1)C2", "CDK1/CyclinB (h) (Homo sapiens, UniProt P06493)", "IC50", "> 10 µM"),
    ("COCCNC(=O)c1cc2cc(c1)Nc1nccc(n1)-c1cccc(c1)CNC(=O)[C@@H]1CCCN1C2", "CDK1/CyclinB (h) (Homo sapiens, UniProt P06493)", "IC50", "0.427 µM"),
    ("CN(C)CCNC(=O)c1cc2cc(c1)Nc1nccc(n1)-c1cccc(c1)CNC(=O)[C@@H]1CCCN1C2", "CDK1/CyclinB (h) (Homo sapiens, UniProt P06493)", "IC50", "1.45 µM"),
    ("O=C1NCc2cccc(c2)-c2ccnc(n2)Nc2ccc(cc2)CN2CCC[C@@H]12", "CDK1/CyclinB (h) (Homo sapiens, UniProt P06493)", "IC50", "> 10 µM"),
    ("O=C1CN2CCN(CC2)Cc2cc(ccc2N2CCOCC2)Nc2nccc(n2)-c2ccc(cc2)CNCCCN1", "CDK1/CyclinB (h) (Homo sapiens, UniProt P06493)", "IC50", "> 10 µM"),
    ("CC(C)Nc1cc2cc(c1)Nc1nccc(n1)-c1ccc(cc1)CN(C)CCCNC(=O)[C@H](CO)NC2", "CDK1/CyclinB (h) (Homo sapiens, UniProt P06493)", "IC50", "> 10 µM"),
    ("COc1ccc2cc1CN(C)CCNC(=O)[C@@H]1CCCN1Cc1cc(cc(N3CCOCC3)c1)Nc1nccc-2n1", "CDK1/CyclinB (h) (Homo sapiens, UniProt P06493)", "IC50", "> 10 µM"),
    ("COc1cc2cc(c1OC)CNC(=O)[C@@H]1CCCN1Cc1cccc(c1)-c1ccnc(n1)N2", "CDK1/CyclinB (h) (Homo sapiens, UniProt P06493)", "IC50", "5.89 µM"),
    ("CN1CCN(Cc2cc3cc(c2)Nc2nccc(n2)-c2cccc(c2)CNC(=O)[C@@H]2CCCN2C3)CC1", "CDK1/CyclinB (h) (Homo sapiens, UniProt P06493)", "IC50", "0.603 µM"),
    ("COc1ccc2cc1CN(C)CCNC(=O)CN1CCN(CC1)Cc1cccc(c1)Nc1nccc-2n1", "CDK1/CyclinB (h) (Homo sapiens, UniProt P06493)", "IC50", "> 10 µM"),
    ("COc1ccc2cc1CN1CCN(CC1)CC(=O)N(C)CCN(C)c1ccc(cn1)-c1ccnc(n1)N2", "CDK1/CyclinB (h) (Homo sapiens, UniProt P06493)", "IC50", "> 3.02 µM"),
    ("O=C1CN2CCN(CC2)Cc2ccc(cc2)Nc2nccc(n2)-c2cccc(c2)CN1", "CDK1/CyclinB (h) (Homo sapiens, UniProt P06493)", "IC50", "> 10 µM"),
    ("COc1ccc2cc1CN1CCC(CC1)C(=O)N(C)CCCN(C)c1ccc(cn1)-c1ccnc(n1)N2", "CDK1/CyclinB (h) (Homo sapiens, UniProt P06493)", "IC50", "> 10 µM"),
    ("O=C1NCc2cc(ccc2N2CCOCC2)Nc2nccc(n2)-c2cccc(c2)CCN2CCC[C@@H]12", "CDK1/CyclinB (h) (Homo sapiens, UniProt P06493)", "IC50", "0.427 µM"),
]
